The measurements presented in this section are drawn from the RNAGym collection of RNA variant scans (doi:10.1073/pnas.2313332121).

B1: TPR t1 (parent)
chain: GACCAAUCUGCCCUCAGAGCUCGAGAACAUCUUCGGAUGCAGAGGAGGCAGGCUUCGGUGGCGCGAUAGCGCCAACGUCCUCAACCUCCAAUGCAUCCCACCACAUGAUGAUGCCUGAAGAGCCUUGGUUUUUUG

# Variants of: B1
# assay_explanation: polymerase ribozyme fitness, log enrichment relative to wild type (log ratio); higher = more active; in vitro selection for triplet polymerase activity
measured_property: polymerase ribozyme fitness (log ratio)
Numbers only.

# mutation_annotation, data_value
records = [
    ("U38A G69A", -4.51),
    ("C13U G42U", -1.12),
    ("C73A A84U C88A G110A C123A U126C", -4.76),
]

Would you mind giving polymerase ribozyme fitness (log ratio) for every variant in the list below?
1. C62U U116C
2. C11A C62A
3. C11A G52A C70U A90G

// result
1. -1.06
2. -2.86
3. -2.22

Would you mind giving polymerase ribozyme fitness (log ratio) for every variant in the list below?
1. C85U A91C A95G
2. C76U A105C
3. G65A G120C U129A U132C
4. A68G U81A C99U A111U C124U
5. C8A C82G
6. C3U G36U G63U C88U A111U C124U
7. C70U C79U G93U

// result
-2.23
-2.5
-6.78
-5.02
-0.777
-6.17
-2.15

Would you mind giving polymerase ribozyme fitness (log ratio) for every variant in the list below?
1. G63A G113C
2. U78C G93U C124A

// result
1: -2.53; 2: 0.632

Would you mind giving polymerase ribozyme fitness (log ratio) for every variant in the list below?
1. C72U C102A
2. G58A C82G C88A G127U
3. G69U C88A G127C U131A
4. G60U C101A C123G

// result
-1.81
-3.33
-2.72
0.75

Would you mind giving polymerase ribozyme fitness (log ratio) for every variant in the list below?
1. C11A G69A
2. C8A A29G C115U U126G
3. A24G U55G C64U
4. C40A C56U C72G
5. U7A G52A G69C

// result
1: -4.25; 2: -2.36; 3: -1.64; 4: -3.26; 5: -2.28

Would you mind giving polymerase ribozyme fitness (log ratio) for every variant in the list below?
1. C40G C114A
2. C49A C94U
3. C49G C62A U78C
4. C4A G51U C70A A84C G113U C114U G128A
5. C40A G47A G63U

// result
1: -2.35; 2: 0.159; 3: -1.5; 4: -6.15; 5: -4.41

Would you mind giving polymerase ribozyme fitness (log ratio) for every variant in the list below?
1. A6G G42C G52U
2. G63A A121C
3. C13U G39U G61C
4. A50G G113U U131A
5. A2U C11G G122A
6. C13G G51A
7. A29U G71U

// result
-2.37
0.832
-1.9
-4.11
-0.62
-4.69
-1.99

Would you mind giving polymerase ribozyme fitness (log ratio) for every variant in the list below?
1. C4A C8G G36U G45U G69C U78A C114U
2. A43U U131A
3. A37C C40U U55C A91C
4. G42U G61U U92A C94A
5. G52U C70U
6. G60U U78A C89G
7. C40G G51A A68G
8. U9C U133G

// result
1. -5.25
2. -1.44
3. -3.28
4. -3.57
5. -1.49
6. -1.87
7. -6.59
8. 0.11
